experimental target: OsWRKY34 (Oryza sativa, UniProt Q0JBA9 1-250)
Sequence (Q0JBA9 entry or part of it): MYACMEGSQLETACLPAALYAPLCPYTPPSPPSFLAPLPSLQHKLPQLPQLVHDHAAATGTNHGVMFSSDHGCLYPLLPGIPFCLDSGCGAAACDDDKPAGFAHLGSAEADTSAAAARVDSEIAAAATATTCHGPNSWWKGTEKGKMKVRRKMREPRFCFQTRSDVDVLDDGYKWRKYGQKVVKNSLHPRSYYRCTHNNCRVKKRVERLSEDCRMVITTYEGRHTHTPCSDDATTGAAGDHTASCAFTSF
method summary: protein-binding microarray (RPBM); PBS, 2% BSA, 51.3 ng/ul salmon testes DNA, 50 uM zinc acetate, 200 nM TF, 25 C, 1 h; high values mean tight binding
condition description: protein: recombinant; tags: N-terminal polyhistidine and DsRed monomer fusion (pET32a); label: CyDye5-dUTP incorporated in the synthesized complementary strand; 3' TTTTT single-stranded linker to array surface; dsDNA, one strand shown
The full ranking holds about 68,000 sequences; the median of “fluorescence intensity (a.u.)” is about 9,100, and the highest 2% start at about 16,000. The sample holds the highest values, similar sequences and a random draw of the others, so the mix is not that of the screen.
Collected binding signal values appear next to each entry.

Examples from the recorded data:
TCCAATCTGTGCTGCCTTTATATTAGTTCCACCAAGAAGACGGAGTCACCTAGTGCAG: 9380 fluorescence intensity (a.u.)
TTCCTGTTCCTGCAAGAAAACGCTCATCCTCTTGCTTTTTCGGAGTCACCTAGTGCAG: 9650 fluorescence intensity (a.u.)
TCCAACTTGGGGAGGGAGGGCCGTTTCAGCTCGGGCTTTTCGGAGTCACCTAGTGCAG: 17200 fluorescence intensity (a.u.)

As a next step, examine the sequence that follows.
Kindly note the recorded binding signal for `TTCCTATGTTTTTCCTGTGTTTTGTAATTCTCTGTTTTACCGGAGTCACCTAGTGCAG` , which is 10600 fluorescence intensity (a.u.)

Origin of values: paper PMC7819943
